reportedEndpoint: melting point (°C)
Numbers only, in °C.

Answer for every listed entry: what is its melting point? The entries follow.
1. CCOC(=O)c1cn(C2Cc3cc(F)ccc3C2=O)c(C(=O)OCC)n1 (centres undefined)
2. O=C(Nc1ccc2cc(CN3CCCC3)cnc2c1)c1ccc(-c2ccc(Cl)cc2)cc1F
3. O=C(O)CNC(=O)c1nc2ccccc2cc1O
4. O=C(C[C@H]1CCCO1)N[C@H]1CC[C@H](CCN2CCC(c3cccc4c3CCO4)CC2)CC1

[out]
138
177
191
192

====

Provide the recorded melting point for the entries that follow.

Study these solved cases before continuing.
- CC(C)N(C)S(=O)(=O)NC(=O)c1cc(N)c(F)cc1Cl: 160 to 162 °C
- COc1ccc(C=C2c3ccccc3C(=O)c3ccccc32)cc1OCC(=O)O: 227 to 230 °C
- COc1cc(O)ccc1C=CC(=O)CC(C)=O: 139 to 142 °C
- CCOC(=O)c1cnn2c1nc(Cl)c1cnc3c(cnn3CC)c12: 170 to 172 °C

Give measured melting point for every item shown.
1. CCC(C)N(C)C(=O)c1cc(-c2ccccc2)c2sccc2c1 (stereo not given)
2. Cn1ncnc1COc1nn2c(-c3ccccc3F)nncc2c1-c1cc(F)ccc1F

[out]
105 °C
164 to 165 °C

Would you be so kind as to report melting point for each listed record?
1. CC(C)(O)c1csc(S(N)(=O)=O)c1
2. COC(=O)c1ccc(NC(=O)c2cc(C(C)C)c(C(C)C)s2)cc1O
3. Cn1c(-c2ccccc2)c2ccsc2nc1=O
4. O=c1n(-c2ccc(OCC(F)(F)C(F)F)cc2)cnn1-c1ccc([N+](=O)[O-])cc1

[out]
125 to 127 °C
180 to 181 °C
175 to 181 °C
161 to 162 °C

Reference source: a melting point compilation (Tetko et al.; mined from patent text by program, amines drawn as free bases though some values may be those of a salt)
